- Test system: SEM cells
- protocol_summary: cell viability relative to DMSO control; higher = less cytotoxic
- recorded_conditions: RPMI 5 mM glucose + 10% dialyzed FBS; 48 h; 15.4 µM
property_label: cell viability
Hi, when you answer, please include the unit after the number. Thanks!

For orientation, consider the following solved cases.
1) COC(=O)[C@@H]1CC2=CC(=O)CC[C@]2(C)[C@@]23O[C@@H]2C[C@@]2(C)[C@@H](CC[C@@]24CCC(=O)O4)[C@H]13 ... 130%
2) Cc1nc(C(=O)NCC(=O)O)c(O)c2ccc(Oc3ccccc3)cc12 ... 115%
3) Oc1ccc(-c2nc(-c3ccncc3)c(-c3ccc(F)cc3)[nH]2)cc1 ... 1.19%
4) CN(C)Cc1cccc(N/C(=C2\C(=O)Nc3cc(C(=O)N(C)C)ccc32)c2ccccc2)c1 ... 26.6%

Next compound, please.
Req: Please tell me: cell viability of `O=C(/C=C/c1cccnc1)NCCCCC1CCN(C(=O)c2ccccc2)CC1` , system SEM cells?
Resp: 7.09%
